Listed below: GI50 values for each entry.
- Tested on: ACHN renal
- experimental_details: NCI tumour cell line growth inhibition, 48 h

C(#Cc1ccccc1C#Cc1ccccn1)c1ccccn1 | 15.6 µM
C[C@H]1CC2=CC(=O)CC[C@]2(C)[C@H]2CC[C@@]3(C)[C@@H](CC[C@]3(C)O)[C@H]12 | 27.6 µM
CS(=O)(=O)Nc1cc(-c2ccc3ncnc(Nc4cccc(Cl)c4F)c3c2)cnc1Cl | 4.09 µM
N#C/C(=C\c1cccnc1)c1nc2ccccc2o1 | > 100 µM

query: Item under review: O=[N+]([O-])c1ccc(NC(=S)N/N=C(\c2ccccc2)c2ccccn2)cc1 . Reported GI50?
result: 1.34 µM

query: Item under review: O=C(O)c1cc2c(c3ccsc13)-c1ccccc1CC2 . Reported GI50?
result: 36.6 µM
